Value source: patent US20240025919A1

measured.on: KRAS WT (Homo sapiens (Human))
method.summary: KRAS WT Biochemical Assay, BODIPY-GDP Exchange TR-FRET (Example 501; 3 nM KRAS WT, 3 nM SOS1, 60-minute incubation)
setup.conditions: read-out: KRas HTRF IC50
readout.label: pIC50
The quantity pIC50 is defined as the negative base-10 logarithm of the molar concentration.

>>> df
                                   compound  readout_label  value_measured
0  C[C@@H]1Oc2nc(-c3cc(N)c(=O)n(C)c3C(F)(F)F)c(F)c3nc(OC[C@@]45CCCN4C[C@H](F)C5)nc(c23)N2C[C@H]3CC[C@H](N3)[C@@H]12          pIC50            6.41

Request: What does the record list as pIC50 for `Cc1nc(N)cc(-c2nc3c4c(nc(OCC5(CN6C[C@H](F)C[C@H](F)C6)CC5)nc4c2F)N2C[C@H]4CC[C@H](N4)[C@H]2[C@H](C)O3)c1C(F)(F)F` ?
Response: 6.98

Request: Please answer likewise for `COC1(C(F)F)CN(CC2(COc3nc4c5c(nc(-c6cc(N)nc(C)c6C(F)(F)F)c(F)c5n3)O[C@@H](C)[C@@H]3[C@@H]5CC[C@H](CN43)N5)CC2)C1`
Response: 7.25

Request: Please answer likewise for `Cc1c(F)c(N)cc(-c2nc3c4c(nc(OC[C@@]56CCCN5C[C@H](F)C6)nc4c2F)N2C[C@H]4CC[C@H](N4)[C@H]2[C@H](C(F)(F)F)O3)c1CC(F)F`
Response: 7.87

---

System: PC-9 (KRAS wild type human lung adenocarcinoma cell line)
method.summary: KRAS 3D-Cell Proliferation Assay, PC-9 (CellTiter-Glo 3D, 7 days)
Assay type: cell-based
setup.conditions: PC-9 3D culture, read-out: Prolif PC9 3D ATP IC50
The following molecules are listed with their measured IC50 values.
// units = µM; emit number, no label

molecule	unit.text	IC50
C[C@@H]1Oc2nc(-c3cccc4cccc(Cl)c34)c(F)c3nc(OCC45CCN4CC(F)(F)C5)nc(c23)N2C[C@H]3CC[C@H](N3)[C@@H]12 (single isomer, unassigned)	µM	8.13
CN1CCC2COc3nc(-c4cc(O)cc5cccc(F)c45)c(F)c4nc(OC[C@@]56CCCN5C[C@H](F)C6)nc(c34)N2CC1 (single isomer, unassigned)	µM	4.24
Cc1cc(N)c(F)c(-c2nc3c4c(nc(OC[C@@]56CCN5CC(F)(F)C6)nc4c2F)N2C[C@H]4CC[C@H](N4)[C@H]2[C@H](C)O3)c1C(F)(F)F	µM	8.13
C#Cc1c(F)ccc2cccc(-c3nc4c5c(nc(OCC67CCN6CC(F)(F)C7)nc5c3F)N3C[C@H]5CC[C@H](N5)[C@H]3[C@H](C)O4)c12 (some centres unmarked)	µM	7.41

Query molecule follows.
Request: What does the record list as IC50 for `C[C@@H]1Oc2nc(-c3cc(N)nc4ccccc34)c(F)c3nc(OC[C@]45CCN4CC(F)(F)C5)nc(c23)N2C[C@H]3CC[C@H](N3)[C@@H]12` ?
Response: 20

---

measured.on: KRAS WT (Homo sapiens (Human))
method.summary: KRAS WT Biochemical Assay, BODIPY-GDP Exchange TR-FRET (Example 501; 3 nM KRAS WT, 3 nM SOS1, 60-minute incubation)
setup.conditions: read-out: KRas(wt) GDP HTRF IC50
Procedure: Example 501: KRAS WT Biochemical Assay, BODIPY-GDP Exchange TR-FRET. Biochemical compound potencies are assessed by evaluating inhibition of SOS1-mediated nucleotide exchange in KRAS WT. In this assay, the SOS1-promoted exchange of fluorescently-labeled GDP (BOPIDY-GDP) is monitored by time-resolved fluorescence resonance energy transfer (TR-FRET). […] After a 60-minute incubation, the fluorescence is measured with excitation at 337 nm and emission at 490 and 520 nm. […]
The following molecules are listed with their measured IC50 values.
Note: a bare number is incomplete; add the unit.

Worked cases, answers included:
molecule	IC50
Cc1c(F)c(N)cc(-c2nc3c4c(nc(OCC56CCN5C[C@H](F)C6)nc4c2F)N2C[C@H]4CC[C@H](N4)[C@H]2[C@H](C)O3)c1C(F)(F)F (stereo partly drawn)	2.93 nM
Fc1c(-c2cccc3cccc(Cl)c23)nc2c3c(ncnc13)N1C[C@H]3CC[C@H](N3)[C@H]1CO2	200000 nM
C[C@@H]1Oc2nc(-c3cc(N)cc(F)c3C(F)(F)F)c(F)c3nc(OC[C@@]45CCCN4C[C@H](F)C5)nc(c23)N2C[C@H]3CC[C@H](N3)[C@@H]12	0.559 nM
C[C@@H]1Oc2nc(-c3cc(O)cc4ccccc34)c(F)c3nc(OC[C@]45CCN4CC(F)(F)C5)nc(c23)N2C[C@H]3CC[C@H](N3)[C@@H]12	126 nM
Cc1c(F)c(N)cc(-c2nc3c4c(nc(OC[C@@]56CCCN5C[C@H](F)C6)nc4c2F)N2C[C@H]4CC[C@H](N4)[C@H]2[C@H](C)O3)c1C(F)(F)F	0.48 nM

Query molecule follows.
Request: What does the record list as IC50 for `C#Cc1cccc2cc(O)cc(-c3nc4c5c(nc(OC[C@@]67CCCN6C[C@H](F)C7)nc5c3F)N3C[C@H]5CC[C@H](CN5CC5COC5)[C@H]3CO4)c12` ?
Response: 5.6 nM

---

The following molecules are listed with their measured pIC50 values.
measured.on: UniProt P01116
method.summary: KRAS WT Biochemical Assay, BODIPY-GDP Exchange TR-FRET (Example 501; 3 nM KRAS WT, 3 nM SOS1, 60-minute incubation)
setup.conditions: read-out: KRas HTRF IC50
The quantity pIC50 is defined as the negative base-10 logarithm of the molar concentration.

Worked cases, answers included:
molecule	pIC50
Cc1c(F)c(N)cc(-c2nc3c4c(nc(OC[C@]56CCN(C)C5COC6)nc4c2F)N2C[C@H]4CC[C@H](N4)[C@H]2[C@H](C)O3)c1C(F)(F)F (single isomer, unassigned) [258 (isomer 2)]	7.96
CCc1c(F)c(N)cc(-c2nc3c4c(nc(OC[C@@H]5CC[C@H]6COCCN65)nc4c2F)N2C[C@H]4CC[C@H](N4)[C@H]2[C@H](C)O3)c1C(F)(F)F	6.56
Cc1nc(N)cc(-c2nc3c4c(nc(OC[C@@]56CCCN5C[C@H](F)C6)nc4c2F)N2C[C@H]4CC[C@H](N4)[C@H]2[C@H](C)O3)c1CC(F)F	6.60
Cc1nc(N)cc(-c2nc3c4c(nc(OC[C@@]56CCCN5C[C@H](F)C6)nc4c2F)N2C[C@H]4CC[C@H](N4)[C@H]2[C@H](C)O3)c1CC(F)(F)F	6.97
Cc1c(F)c(N)cc(-c2nc3c4c(nc(OC[C@@]56CCCN5C[C@H](F)C6)nc4c2F)N2C[C@H]4CC[C@H](NC4)[C@H]2CO3)c1C(F)(F)F	6.08

Query molecule follows.
Request: What does the record list as pIC50 for Cc1c(F)c(N)cc(-c2nc3c4c(nc(OC[C@@]56CCCN5C[C@H](F)C6)nc4c2F)N2C[C@H]4CC[C@H](N4)[C@@H]2C(C)O3)c1C(F)(F)F (single isomer, unassigned) [237 (isomer 2)] ?
Response: 9.46

---

measured.on: KRAS WT (Homo sapiens (Human), UniProt P01116)
Sequence (P01116-2 other isoform, or with tags, fused parts or gaps): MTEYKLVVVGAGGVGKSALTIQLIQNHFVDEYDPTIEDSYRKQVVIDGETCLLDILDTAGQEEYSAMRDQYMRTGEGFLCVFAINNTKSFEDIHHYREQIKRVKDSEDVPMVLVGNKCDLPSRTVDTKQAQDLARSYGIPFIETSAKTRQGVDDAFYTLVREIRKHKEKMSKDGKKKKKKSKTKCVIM
method.summary: KRAS WT Biochemical Assay, BODIPY-GDP Exchange TR-FRET (Example 501; 3 nM KRAS WT, 3 nM SOS1, 60-minute incubation)
setup.conditions: read-out: KRas(wt) GDP HTRF IC50
readout.label: IC50 (nM)
// units = nM; emit number, no label

Worked cases, answers included:
compound	unit.text	IC50
C=C1CN2CCC[C@@]2(COc2nc3c4c(nc(-c5cc(O)cc6cccc(CC)c56)c(F)c4n2)O[C@@H](C)[C@@H]2[C@@H]4CC[C@H](CN32)N4)C1 [Compound 80]	nM	3.39
C[C@@H]1Oc2nc(-c3nc(N)cc4ccccc34)c(F)c3nc(OC[C@@]45CCCN4C[C@H](F)C5)nc(c23)N2C[C@H]3CC[C@H](N3)[C@@H]12 [Compound 41]	nM	296
Cc1cc(N)nc(-c2nc3c4c(ncnc4c2F)N2C[C@H]4CC[C@H](N4)[C@H]2CO3)c1C(F)(F)F [Compound 52]	nM	194000

Query compound follows.
Request: What does the record list as IC50 for C[C@@H]1Oc2nc(-c3cc(N)nc4ccccc34)c(F)c3nc(OC[C@]45CCN4CC(F)(F)C5)nc(c23)N2C[C@H]3CC[C@H](N3)[C@@H]12 [Compound 79] ?
Response: 954

---

The following molecules are listed with their measured pIC50 values.
measured.on: KRAS G12D (Homo sapiens (Human), UniProt P01116, G12D)
Sequence (P01116-2 other isoform, or with tags, fused parts or gaps G12D): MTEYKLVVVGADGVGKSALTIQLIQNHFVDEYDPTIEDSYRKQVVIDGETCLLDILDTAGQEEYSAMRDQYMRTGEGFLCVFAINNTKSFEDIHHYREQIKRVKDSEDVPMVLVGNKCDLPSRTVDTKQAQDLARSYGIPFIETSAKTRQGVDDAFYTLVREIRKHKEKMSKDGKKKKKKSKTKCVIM
method.summary: KRAS G12D LoEnz Biochemical Assay, BODIPY-GDP Exchange TR-FRET (SOS1-mediated nucleotide exchange)
setup.conditions: read-out: KRas (G12D) GDP HTRF IC50
The quantity pIC50 is defined as the negative base-10 logarithm of the molar concentration.

Worked cases, answers included:
molecule	measured.on	pIC50
C[C@@H]1Oc2nc(-c3cc(N)c(F)c(F)c3CC(F)F)c(F)c3nc(OC[C@@]45CCCN4C[C@H](F)C5)nc(c23)N2C[C@H]3CC[C@H](N3)[C@@H]12	KRAS G12D (Homo sapiens (Human), UniProt P01116, G12D)	9.96
C[C@@H]1Oc2nc(-c3cccc(N)c3F)c(F)c3nc(OC[C@@]45CCCN4C[C@H](F)C5)nc(c23)N2C[C@H]3CC[C@H](N3)[C@@H]12	KRAS G12D (Homo sapiens (Human), UniProt P01116, G12D)	6.42
Cc1cc(N)c(F)c(-c2nc3c4c(nc(OC[C@@]56CCCN5C[C@H](F)C6)nc4c2F)N2C[C@H]4CC[C@H](N4)[C@H]2CO3)c1C(F)(F)F	KRAS G12D (Homo sapiens (Human), UniProt P01116, G12D)	9.01
Cc1c(F)c(N)cc(-c2nc3c4c(nc(OC[C@@]56CCCN5CCN(C)C6=O)nc4c2F)N2C[C@H]4CC[C@H](N4)[C@H]2[C@H](C)O3)c1C(F)(F)F (single isomer, unassigned) [137 (isomer 1)]	KRAS G12D (Homo sapiens (Human), UniProt P01116, G12D)	8.64

Request: What does the record list as pIC50 for `Cc1c(F)c(N)cc(-c2nc3c4c(nc(OCC56C[C@H](F)CN5C[C@@H](F)C6)nc4c2F)N2C[C@H]4CC[C@H](N4)[C@H]2[C@H](C)O3)c1C(F)(F)F` ?
Response: 8.62
